experiment: Antiproliferative activity against human PANC1 cells assessed as inhibition of cell proliferation after 72 hrs by MTS assay; assay type: functional, cell-based; conditions: PANC-1, 72 h
Each record here notes measured pIC50.
# pIC50 = -log10(concentration in molar units)

Here is how some molecules turned out for pIC50.
| MOLECULE | pIC50 |
| --- | --- |
| NCCCOc1ccc(Cl)cc1C(=O)Nc1ccc2c(c1)S(=O)(=O)C=C2 | 5.73 |
| CNCCOc1ccc(Cl)cc1C(=O)Nc1ccc2c(c1)S(=O)(=O)C=C2 | 5.51 |
| COC1CS(=O)(=O)c2cc(NC(=O)c3cc(Cl)ccc3O)ccc21 (stereo not drawn) | 5.08 |
| NCCOc1ccc(Cl)cc1C(=O)Nc1ccc2c(c1)S(=O)(=O)C=C2 | 5.65 |
| O=C(Nc1ccc2c(c1)S(=O)(=O)C=C2)c1cc(Cl)ccc1OCCN1CCNCC1 | 5.43 |
| O=C(Nc1ccc2c(c1)S(=O)(=O)C=C2)c1cc(Cl)ccc1OCCN1CCOCC1 | 5.16 |

pIC50 for CN1CCC(Oc2ccc(Cl)cc2C(=O)Nc2ccc3c(c2)S(=O)(=O)C=C3)CC1 is 5.87

The molecule listed as O=C(Nc1ccc2c(c1)S(=O)(=O)C=C2)c1cc(Cl)ccc1OCCN1CCCCC1 has a reported pIC50 of 5.74

Memo: O=C(Nc1ccc2c(c1)S(=O)(=O)C=C2)c1cc(Cl)ccc1OC1CCNCC1 , reported pIC50: 5.39

Record O=[N+]([O-])c1ccc2c(c1)S(=O)(=O)C=C2 . Reported pIC50: 5.42

Documented pIC50 of CN(C)CCOc1ccc(Cl)cc1C(=O)Nc1ccc2c(c1)S(=O)(=O)C=C2 : 5.47

# pIC50 (molecule: O=C(Nc1ccc2c(c1)S(=O)(=O)C=C2)c1cc(Cl)ccc1OCCF ) is 5.02

Short answer for CN1CCN(CCOc2ccc(Cl)cc2C(=O)Nc2ccc3c(c2)S(=O)(=O)C=C3)CC1 : pIC50 was 5.52

Reference source: ChEMBL document CHEMBL3286388
